- Experiment Notes: yeast display, Sf9 membrane polyspecificity reagent, FACS + sequencing; frameworks hold sequencing errors
Measurement Kind: polyreactivity (PSR sort gate)

Known polyreactivity (PSR sort gate) results, listed for orientation:
QVQLVESGGGLVQAGGSLRLSCAASGRTFYIYTMGWYRQAPGKERELVAAISGRGGRTYYADSVKGSFTISRDNAKNTVYLQMNSLKPEDTAVYYCARGGRVRYDYWGQGTQVTVSS :: low polyreactivity
QVQLVESGGGIVQAGGSLRLSCAASGLTFYGYTMGWYRQAPGKERELVAAISWSGGNTYYADSVKGRFTISRDNAKNTVYLQMNSLKPDDTAVYYCAAVYVYLGVYARYPIWGYYYWGQGTQVTVSS :: low polyreactivity
QVQLVESGGGLVQAGGSLRLSCAASGNTFYANTMGWYRQAPGKERELVAAITVRGASTNYADSVKGSFTISRDNAKNTVYLQMNSLKPEDTAVYYCNAVGLRSPWHQDYLIRYDYRGQGTQVTVSS :: low polyreactivity
QVQLVESGGGLVQAGGSLRLSCAASGIIFSYYDMGWYRQAPGKERELVATITGNGGSTYYADSVKGRFTISRDNAKNTVYLQMNSLKPEDTAVYYCAAQTTVYIYDYWGQGTQVTVSS :: low polyreactivity
QVQLVESGGGLVQAGGSLRLSCAASGRIFSPYAMGWYRQATGKERELVAAIDWDGGGTYYADSVKGRFTISRDNAKNTVYLQMNSLKPEDTAVYYCAAETDLANGTSPSDYWGQGTQVTVSS :: low polyreactivity
QVQLVESGGGLVQAGGSLRLSCAASGRTFPRNAMGWSRQAPGKERELVAAISSTGDSTYYADSVKGRFTISRDNAKNTVYLQMNSLKPEDTAVYYCHYPYDYWGKGTQVTVSS :: low polyreactivity
QVQLVESGGGLVQAGGSLRLSCAASGNTFAYNTMGWYRQAPGKERELVAAIRTRGGSTYYADSVKGRFTISRDNAKNTVYLQMNSLKPEDTAVYYCAADYRYHGYWSYDYWGQGTQVTVSS :: low polyreactivity
QVHLVESGGGLVQAGGSLRLSCAASGNIFGLYAMGWYRQAPGKERELVAAIRWIGGRTYYADSVKGRFTISRDNAKNTVYLQMNSLKPEDTAVYYCNAEYIVYYRGYDYWGHGTQVTVSS :: high polyreactivity

Ask: Please give the measured polyreactivity (PSR sort gate) for this sequence: QVKLVESGGGLVQAGGSLRLICAASGMTFVIYAMGWYRQAPGKERELVARNTWSGGSTYYADSEKGRFTISRDNSKNTVYLQMNSLNPEDSAVYYCAARRFYYYTAGYDYWGQGTQVTVSS
Result: low polyreactivity

Ask: Tell me the measured polyreactivity (PSR sort gate) of QVQLVESGGGLVQAGGSLRLSCAASGRIFAYYAMGWYRQAPGKERELVATINYSGTSTYYADSVKGRFTISRDNAKNTVYLQMNSLKPEDTAFYYCAADLTSRLLWYHIERFDYWGQGTQVTVSS , please.
Result: high polyreactivity

Ask: Give its polyreactivity (PSR sort gate) value. Item: QVQLVESGGGLVQAGGSLRLSCAASGFILEGYAMGWYRQAPGKERELVAAITRRGTRTYYADSVKGRFTISRDNAKNTVYLQMNSLKPEDTAVFYCNAESRSTWVAGYDYWGQGTQVTVSS
Result: high polyreactivity
